Numbers sourced from the supplement of paper PMC12764529.

experiment_summary: folding stability dG unfold from trypsin proteolysis; higher = more stable
measurement_kind: folding stability dG unfold (kcal/mol)
Answer format: numeric, kcal/mol implied, no suffix.

> print(dat)
                             query.sequence  test.result
1  SAGGSAGGVVPLEELAKRLGWSPEFLRELEEKGIKVELERVTPDKVVVTLTEPGTGETKTIELPSAGGSAGG [r6_969_JUSTAS]         3.19
2  SANDKHKYEEEYPYRNPNDPGQPMPFKREREVPVQPPPVITIDADELAKELKEQGEIKIPPDGWIAIPFSAG [r14_582_TrROS]         3.08
3  SAGGSAGGSAMVIEDPKTNKLIEVEKLPDGTYKVTIYDKKTGEKKTITMSKKDLEKLLKALSAGGSAGGSAG [r3_162_TrROS_Hall]         4.91
4  SAGGSAGGSAGGMITTGITVSATDPNSSTSYTVTVPSSVPSSTFPANTAVGSAALAKLLASAGGSAGGSAGG [r17_412_JUSTAS]       -0.554
5  SAGGSSEIVELKSIEKKGNSVILTLESKTNDYKVVVVIEGNKIRAYVFDKNGNIIAEFEFDGHPYLSAGGSA [r2_437_TrMRF]         2.41

// SAGGSAGGSAMPKTTVYTIPYESDEEAEARIEEIKAEARARNPEAKVTVTPAGESVNVTIVGSAGGSAGGSA [r18_469_JUSTAS] : folding stability dG unfold value = -0.7

For SMPLTPAEVAEARARAAREAAEAAAGVPVTVRVTLSTPDRELTVTLPATESLAAVMKAHPDVTVEVEVEASA [r9_513_JUSTAS] the sequence record lists folding stability dG unfold as 0.459

Reported folding stability dG unfold for SAGGSAGGSKPDTIKITFPDGFEIEINGPGMIMIRFPEQGYIFRIPIDPDKNEIKIEIVEPLPSAGGSAGGS [r12_539_TrROS] was 2.43

Just so you know, measured folding stability dG unfold for SAGGSAGGSAGGKAVFLKTKTVTRTVTRKTTKNGKEEEVATETVTTVELVEVDLDNGEASAGGSAGGSAGGS [r10_93_TrROS_Hall] came out at -0.708

Quick note, folding stability dG unfold for SAGGSWLPPGMWIISISIKWEMREMTFSPNGQPEMEMRLEIDIQVIKIPPPPPPPKEDAKNPNGKWSAGGSA [r2_495_TrROS] landed at 0.946

The sequence SAGGEPVKFIPPGWKITLTTPDGRPLTFTLPANATPEDFKSLELPGDHELEFVEFLPDGTILVRSPKSAGGS [r16_103_TrMRF] showed folding stability dG unfold equal to 0.948

What the record says about SAGGSAGGSKEEIRKRIAERLRELIPDAKITSIEFDEKTKKITITVDSPEVREALEKLPGIKPSAGGSAGGS [r12_623_TrROS_Hall] : folding stability dG unfold is 1.49

Query SAGKKVRIWIVFDGDPEQAKYLAEEIAKELRQKDGHKNVDIEVIPPGQDMHQMMEWAEENNVDIVIMVSAGG [r19_89_TrROS] yields folding stability dG unfold of 2.68

# folding stability dG unfold of SAGGMPKLTVTITFEPPDGSTTTTRDFTSVEEAIEALRAVPDIPVEPLEDDVIRARRPDSETTVTIVESAGG [r13_143_JUSTAS] = 0.192

----------
experiment_summary: folding stability dG unfold from chymotrypsin proteolysis; higher = more stable
measurement_kind: folding stability dG unfold (kcal/mol)
Answer in kcal/mol, number only, no unit symbol.

Kindly note the recorded folding stability dG unfold for SAGGEELIKELLDKLPPDVKEATIEIEVDGKKVTLTVNEDGEVTLEVIDPETKEKKTFKIKNGKIEPVSAGG [r13_803_TrROS_Hall] , which is 3.19

For this sequence ( SAGGSMDLRVVVVGEDGKVLELPAGEEVSLPDVVAFFSELGDFEVEAHPESGTLTIRVPKGVLEEASAGGSA [r2_164_TrMRF] ), measured folding stability dG unfold is 0.804

response.value for SAGGSAGGSAKVVVDEVEVEVFKNEDGEEVLRVRFKKTGEEVEIPLEDLEKLELPPGAVVEPSAGGSAGGSA [r18_288_TrROS_Hall] (field: folding stability dG unfold) = 1.84

Item: SAGGSAGGSAGGGMSLSYTVTTSTTVVPAPDGVTVLHPTTTTFPGGPTTTTTTVTVEPAGSAGGSAGGSAGG [r7_701_JUSTAS] | folding stability dG unfold: -0.855

Kindly note the recorded folding stability dG unfold for SAGGSAGGLKEALKLAEELGAKPHVVKTKGNSEIVFLELKDGRKIRLLVENGKIKEIIPIPETPSAGGSAGG [r6_548_TrMRF] , which is 2.39

Lab note: measured folding stability dG unfold of SAGGSAGGWITLDLIKELAREAMNQAQLNGMENVPIEIRWPDGWRIKIEINMNKVEVDVQPWNDSAGGSAGG [r6_270_TrROS] was 2.57

Data point: SAGGSATQVVLKITIKINKGEKEETREIVLPATDPEEAIAKVKKELKEKGIDAEIEELEILPVDLLSAGGSA [r15_165_JUSTAS] ; folding stability dG unfold = 0.919

----------
experiment_summary: folding stability dG unfold from trypsin proteolysis; higher = more stable
measurement_kind: folding stability dG unfold (kcal/mol)
Answer format: numeric, kcal/mol implied, no suffix.

> print(dat)
                             query.sequence         u  test.result
1  SAGGSAGGSSAVVPLPDVVLVVLTFPDGGPPVLALLFPPTGRVVFVHPDSVTVAPFAPGGSLLSAGGSAGGS [r12_536_TrMRF]  kcal/mol          1.1
2  SAWIPAKEIAKYLAKELQEKMPHPGMKIPVDVETNPEENYVRVDIDIEHPGDGGKWKFEIYIPPGDTIVSAG [r14_849_TrROS]  kcal/mol        0.664

The sequence listed as SAGGSEPEPLRVSEITDIKESVLPNGTLKATVTLKLPEKDEEVEIEVEASSEEEIEEAIEEIVKLESAGGSA [r2_248_JUSTAS] has a reported folding stability dG unfold of 0.678

Quick note, folding stability dG unfold for SAGGKPKIRIKIEIYTPEKKETIELEFDSVEEALEALASLPGVKVEKLPDGTIYIKIPNLIIKIEIEPSAGG [r13_143_TrROS_Hall] landed at 3.19

----------
experiment_summary: folding stability dG unfold from trypsin proteolysis; higher = more stable
measurement_kind: folding stability dG unfold (kcal/mol)
Respond with the bare value in kcal/mol.

Sample records with folding stability dG unfold:
> print(dat)
                             query.sequence             measurement.kind  test.result
1  SAGGSAGGSFKVPGGYKVVSVEEDPENKTVEITFADGSKLTIDIEDPNVFKPVKVEAPEGFDVSAGGSAGGS [r12_149_TrMRF]  folding stability dG unfold         1.55
2  SAGGSASLASLRKVGETVTYTITPDGTLTVTTHTFYRDPVTGELVVESTTTTTPIPPGDAAALAALSAGGSA [r15_207_JUSTAS]  folding stability dG unfold         2.72
3  SPNFRISPEIKNAIKRALKENEPGKKVEIRMRYPDGPTIMISIDKPGSINIEVEPDPGKPIMEFEFDIKDSA [r9_132_TrROS]  folding stability dG unfold        0.732
4  SKTIIIEVKEEKLEEIAEELAKKLEEETGYKIKKVEIILPDGTVVRIEVDAKTKKIKIEVYKLDKNGKLLSA [r9_173_TrROS_Hall]  folding stability dG unfold         1.15
5  SKNKVEITIPMPYSQAREIARQLGLPPEKFKDPKDLVDWLKDLFPKDVKIRIQPMKPVTEEERRARQNGKSA [r9_74_TrROS]  folding stability dG unfold        0.817
6  SISITLPDGTKTVSQSFNPEGNTITYTMEAPGKKITITLTEKVVGGSKEISVKITTDPVPLTPEEVAALKAS [r1_154_JUSTAS]  folding stability dG unfold         2.03
7  SAGGSASMVEEEVTLQKKVKSEEEALKFAEEVKESNPHVKTVEVSLEKLPDGSILVNVTIKRILKPSAGGSA [r15_726_JUSTAS]  folding stability dG unfold         4.43
8  SAGMPGKIRVEVEAEISEDNVIKLKIKIYGPDGELIDEIEAEIYLPVPPLSPSEGGGLIEAGNPELAEGSAG [r5_944_TrMRF]  folding stability dG unfold         2.54

# sequence SAGGSAGGSDYKIEIEVEPMDPEDGYYQVELEIYDPNNGEPKEKIPVHMDSPEDAKDAIKELISAGGSAGGS [r12_26_TrROS] ; its folding stability dG unfold = 0.499

Record SAGGSAGGSMTLKVTLPNGKVIELPLPEELENIPAETIAKLLGEENVRLELYSPDGVPYDFGASAGGSAGGS [r12_411_TrMRF] . Reported folding stability dG unfold: 1.18

Lab note: measured folding stability dG unfold of SAGGSAGGSAGMKTITKKVKSEEEAKKLAEELKKKGYKVEVEVKKDPKTGNYIVTITIELPESAGGSAGGSA [r18_455_JUSTAS] was 3.32

folding stability dG unfold reported for this sequence SAGMILPPNTVVTLSTTTTEELPLFTDGSGPRTTTTETVVTVEPVPVNPYPDPAVREKLLAEGKPLELLSAG [r5_624_JUSTAS] : -0.513

Form: sequence = SAGGSAGGSAGGATFKPGETVRVEVEVELRVFKVDEETGEIVEETETVTVRVEVEVRLESAGGSAGGSAGGS [r10_122_TrROS_Hall] ; folding stability dG unfold = 1.87

Reported folding stability dG unfold ( SAGGSAGGSAEEVTVTVKIERTTEDGEKVEETITVTVPAEKLDELKKAAEEAGFTVVEVTPSAGGSAGGSAG [r3_453_TrROS_Hall] ) = 2.68
